- tested_target: T1, Human HEVM recombinant protein (Sino Biological, 10334-H02H) (human, UniProt Q92956 39-202)
- T1 construct: construct known only by catalogue number; also called HVEM; human HVEM
- T1 sequence (looked up): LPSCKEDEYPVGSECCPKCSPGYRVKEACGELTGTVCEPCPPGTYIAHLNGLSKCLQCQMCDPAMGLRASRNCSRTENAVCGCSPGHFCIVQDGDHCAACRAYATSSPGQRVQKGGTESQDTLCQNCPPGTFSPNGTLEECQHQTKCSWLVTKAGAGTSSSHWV
- assay_explanation: competition ELISA, competitor LIGHT-His
- Experimental: The competitive activity of HVEM antibody to BTLA or LIGHT was evaluated with ELISA-based competitive assay. Briefly Human HEVM recombinant protein (Sino Biological, 10334-H02H, 4 ug/ml, 100 ul/well) was coated to ELISA plate (Thermo Scientific, 469949, 4C overnight). […] Plate was read at 450 nm. The IC50 was calculated using GraphPad Prism software (GraphPad Software, Inc. San Diego, CA, USA).
pIC50: −log10 of the molar value.
Please note: TRUE applies when pIC50 is 7 or greater, and FALSE applies otherwise.

Ab_080 (H5S20-27A23A) (antibody, V domains shown, also called Ab_80) VH: EVQLQQSGTVLARPGASVKMSCKASGYSFTSYWMHWLKQRPGQGLEWIGAIYPGNSDTVFNQKFKGKAKLTAVTSATTAYMELSSLTNEDSAVYYCTKEPRTIEGAWFTYWGQGTLVTVSA VL: DIVMTQSPSSLTVPAGEKVTMSCKSSQSLLNSENQKNYLTWYQQKPGQPPKLLIYWASTRESGVPDRFTGSGSGTDFTLTISSVQAEDLAVYYCQSDYSYPLTFGAGTKLELK ... TRUE

stdin: Check if pIC50 >= 7 (inclusive). Item: Ab_063 (H5S20-4A4A) (antibody, V domains shown, also called Ab_159; Ab_63) VH: EVKLVESGGGLMKPGGSLKLSCAASGFTFSSYAMSWVRQTPETRLEWVASISSGGSTYYPDSVKGRFTISRDNVRNILYLQMSSLRSEDTAMYFCTRGGYGSSYVIWGQGTTLTVSS VL: DIVMSQSPSSLAVSVGEKITMSCKSSQSLLFSSIQKNYLAWYQQKPGQSPKLLVYWASTRESGVPDRFTGSGSGTDFTLTISSVKAEDLAVYYCQQYYSYPFTFGSGTKLEIK
stdout: TRUE

stdin: Check if pIC50 >= 7 (inclusive). Item: Ab_001 (H5S14-1A1A) (antibody, V domains shown, also called Ab_1) VH: DVKLVESGGGLVKPGGSLKLSCAASVFTFSRYTMSWVRQTPEKRLEWVATISSGGSYTYYPDSVKGRFTISRDNAKNTLYLQMSSLKSEDTAIYYCTRGGDGLFDYWGQGTALTVSS VL: DVQITQSPSYLAASPGETITINCRASKSISKYLAWYQEKPGKTNQLLIYSGSTLQSGIPSRFSGSGSGTDFTLTISSLEPEDFAMYYCQQHNEYPWTFGGGTKLEIK
stdout: FALSE

stdin: Check if pIC50 >= 7 (inclusive). Item: Ab_036 (H5S15-12A13A) (antibody, V domains shown, also called Ab_36) VH: EVQLQQSGAELVKPGASVKLSCTASGFNIKDTYMHWVKQRPEQGLEWIGRIDPANGNTKFDPKFQGKATITADTSSNTAYLQLSSLTSEDTAVYYCASRGGSSFDYWGQGTTLTVSS VL: DIVLTQSPASLAVSLGQRATISCKASQSVDYDGESYMNWYQQKPGQPPKLLIYAASNLDSGIPARFSGSGSGTDFTLNIHPVEEEDAATYYCQQSNEDPLTFGAGTKLELK
stdout: TRUE
